Data provenance is patent US20230050653A1.

assay: In vitro cytotoxicity assay in HepG2 cells, CCK-8 method; conditions: human
Endpoint label: CC50 at 48 h

QUERY: CC50 at 48 h lookup needed for COc1cc(F)cc(CNC(=O)N2CCc3cc(-c4cn[nH]c4)ccc32)c1 , thanks.
RESULT: > 50 µM

QUERY: CC50 at 48 h lookup needed for COc1cccc(CNC(=O)c2ncn3cc(-c4cn[nH]c4)ccc23)c1 , thanks.
RESULT: > 100 µM

QUERY: CC50 at 48 h lookup needed for COc1cccc(CNC(=O)N2CCc3cc(-c4c[nH]nc4N)c(F)cc32)c1 , thanks.
RESULT: 40.8 µM

QUERY: CC50 at 48 h lookup needed for COc1cccc(CNC(=O)c2ncn3cc(-c4cn[nH]c4F)ccc23)c1 , thanks.
RESULT: > 100 µM
